Activity values for the compounds below.
# Tested Target: Serine/threonine-protein kinase TNNI3K (Homo sapiens) (UniProt Q59H18)
# Sequence (Q59H18 whole entry): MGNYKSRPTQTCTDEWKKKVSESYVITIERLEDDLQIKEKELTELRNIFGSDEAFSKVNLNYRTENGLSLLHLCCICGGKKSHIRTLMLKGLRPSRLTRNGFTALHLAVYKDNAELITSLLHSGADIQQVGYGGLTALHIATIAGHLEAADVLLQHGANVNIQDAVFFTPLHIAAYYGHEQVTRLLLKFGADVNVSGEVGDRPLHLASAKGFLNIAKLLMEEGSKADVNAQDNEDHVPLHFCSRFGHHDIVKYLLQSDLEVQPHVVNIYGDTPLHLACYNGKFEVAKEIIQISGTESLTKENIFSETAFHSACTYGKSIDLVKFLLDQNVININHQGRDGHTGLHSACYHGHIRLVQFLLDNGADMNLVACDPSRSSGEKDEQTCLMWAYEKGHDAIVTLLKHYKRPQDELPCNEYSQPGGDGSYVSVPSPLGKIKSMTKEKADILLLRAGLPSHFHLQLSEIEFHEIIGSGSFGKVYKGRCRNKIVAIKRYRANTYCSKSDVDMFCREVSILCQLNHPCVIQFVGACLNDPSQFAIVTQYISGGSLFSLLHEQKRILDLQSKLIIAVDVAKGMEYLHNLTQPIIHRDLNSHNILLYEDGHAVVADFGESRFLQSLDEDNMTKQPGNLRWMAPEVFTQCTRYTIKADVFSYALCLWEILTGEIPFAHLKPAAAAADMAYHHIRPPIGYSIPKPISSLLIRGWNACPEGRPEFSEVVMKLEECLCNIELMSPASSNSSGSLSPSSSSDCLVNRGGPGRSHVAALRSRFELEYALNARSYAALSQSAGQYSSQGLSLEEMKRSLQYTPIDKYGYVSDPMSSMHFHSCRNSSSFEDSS
# Measurement Protocol: Inhibition of TNNI3K (unknown origin) assessed as residual activity at 1 uM using biotinylated CTnI as substrate by HTRF analysis relative to control
Expressed in %, but write only the number.

Before answering, review these 6 worked examples.
[[record]]
structure_smiles = "CN(C)c1ccc(Nc2ncnc3sc4c(c23)CCNC4)cc1NC(=O)c1ccco1"
units_symbol = "%"
numeric_value = 35

[[record]]
structure_smiles = "CN1CCc2c(sc3ncnc(Nc4ccc(N(C)C)c(NC(=O)c5ccncc5)c4)c23)C1"
units_symbol = "%"
numeric_value = 46

[[record]]
structure_smiles = "CN(C)c1ccc(Nc2ncnc3sc4c(c23)CCN(C(=O)c2ccncc2)C4)cc1NC(=O)c1ccco1"
units_symbol = "%"
numeric_value = 35

[[record]]
structure_smiles = "CN(C)c1ccc(Nc2ncnc3sc4c(c23)CCN(C(=O)c2ncccn2)C4)cc1NC(=O)c1cccs1"
units_symbol = "%"
numeric_value = 49

[[record]]
structure_smiles = "CN1CCN(CCCN2CCc3c(sc4ncnc(Nc5ccc(N(C)C)c(NC(=O)c6ccco6)c5)c34)C2)CC1"
units_symbol = "%"
numeric_value = 33

[[record]]
structure_smiles = "CN1CCc2c(sc3ncnc(Nc4ccc(N(C)C)c(NC(=O)c5ccccn5)c4)c23)C1"
units_symbol = "%"
numeric_value = 55


Alright, here's another compound for you.
For record CCC(=O)Nc1cc(Nc2ncnc3sc4c(c23)CCN(CCCN2CCOCC2)C4)ccc1N(C)C the listed Activity is 37

====

# Tested Target: Epidermal growth factor receptor (Homo sapiens)
# Measurement Protocol: Inhibition of recombinant human EGFR (696 to end residues) assessed as residual activity at 1 uM using poly(Glu, Tyr) 4:1 as substrate incubated for 40 mins by [gamma-33P]-ATP scintillation counting based radiometry assay relative to control
Activity values for the molecules below.
Expressed in %, but write only the number.

[[record]]
structure_smiles = "CN(C)c1ccc(Nc2ncnc3sc4c(c23)CCNC4)cc1NC(=O)c1ccncc1"
units_symbol = "%"
numeric_value = 90


Entry CN(C)c1ccc(Nc2ncnc3sc4c(c23)CCN(C(=O)c2ncccn2)C4)cc1NC(=O)c1cccs1 , tested on Epidermal growth factor receptor (Homo sapiens), has a reported Activity of 92

Entry CCC(=O)Nc1cc(Nc2ncnc3sc4c(c23)CCN(Cc2ccccc2)C4)ccc1N(C)C , tested on Epidermal growth factor receptor (Homo sapiens), has a reported Activity of 91
